target: Glycogen synthase kinase-3 beta (Homo sapiens) (UniProt P49841); conditions: Compound concentration 20.0 uM, Protein concentration 2.0 uM, Result type QC Liability
Sequence (P49841 whole entry, looked up): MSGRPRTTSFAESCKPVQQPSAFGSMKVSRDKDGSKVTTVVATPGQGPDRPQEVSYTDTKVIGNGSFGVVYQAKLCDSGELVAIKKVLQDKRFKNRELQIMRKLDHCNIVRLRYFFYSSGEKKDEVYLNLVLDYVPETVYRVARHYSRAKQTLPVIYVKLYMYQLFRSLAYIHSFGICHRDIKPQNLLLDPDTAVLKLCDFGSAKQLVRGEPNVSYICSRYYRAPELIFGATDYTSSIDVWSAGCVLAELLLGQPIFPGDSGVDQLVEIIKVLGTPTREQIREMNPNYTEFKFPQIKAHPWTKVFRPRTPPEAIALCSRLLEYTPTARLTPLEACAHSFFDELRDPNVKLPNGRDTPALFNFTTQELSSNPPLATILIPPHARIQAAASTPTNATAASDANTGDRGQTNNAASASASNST
Description: Thermal Shift Assay. Domain: start/stop: M26-R383
So basically, if ΔTm comes in under -0.2 °C it's Fulfilled, and if it's -0.2 °C or more it's Not fulfilled.

I'd appreciate it if you could check whether O=C1CCC(N2Cc3cc(CNC(=O)C(F)(F)c4ccc(Cl)cc4)ccc3C2=O)C(=O)N1 (stereo not given) has ΔTm smaller than -0.2 °C.
Not fulfilled

Dear colleague, could you confirm whether ΔTm of C[C@@H](CN1CC[C@@]2(C)c3cccc(O)c3C[C@@H]1C2(C)C)OCc1ccccc1 falls below -0.2 °C? Thanks.
Fulfilled

I'd appreciate it if you could check whether Cc1nnc2n1-c1sc3c(c1C(c1ccccc1Cl)=NC2)CC(C(=O)N1CCOCC1)C3 (stereo not given) has ΔTm smaller than -0.2 °C.
Fulfilled

Is it true that ΔTm reported for Cn1ncc(-c2nc(N[C@H]3CC[C@H](N)CC3)ncc2Cl)c1CC1CC1 is less than -0.2 °C?
Not fulfilled

Please determine if C=CC(=O)N1CCC[C@@H](n2nc(-c3ccc(Oc4ccccc4)cc3)c3c(N)ncnc32)C1 is below -0.2 °C in terms of ΔTm.
Fulfilled

====

target: Aurora kinase A (Homo sapiens); settings: Compound concentration 20.0 uM, Protein concentration 2.0 uM, Result type QC Liability
Description: Thermal Shift Assay. Domain: start/stop: E122-S403
Provide the recorded ΔTm for the entries that follow.
Hi! Could you send only the number? It should be in °C, unit omitted.

Please look up its ΔTm: CS(=O)(=O)c1ccc(-c2cnc(N)c(C(=O)Nc3ccccc3)n2)cc1
0.45

Would you mind telling me what ΔTm value was observed for Cn1ncc(-c2nc(N[C@H]3CC[C@H](N)CC3)ncc2Cl)c1CC1CC1 ?
2.45

What does the data say about its ΔTm? Entry: C[C@@H](CO)CCC[C@@H](C)[C@H]1CC[C@H]2[C@@H]3CC=C4C[C@@H](O)CC[C@]4(C)[C@H]3CC[C@]12C
-1.67

Recorded ΔTm of N[C@H](C(=O)O)[C@@H]1CC(Cl)=NO1 , please.
-0.37

====

target: Tyrosine-protein kinase ABL1 (Homo sapiens) (UniProt P00519); settings: Compound concentration 20.0 uM, Protein concentration 2.0 uM, Result type QC Liability
Sequence (P00519 whole entry): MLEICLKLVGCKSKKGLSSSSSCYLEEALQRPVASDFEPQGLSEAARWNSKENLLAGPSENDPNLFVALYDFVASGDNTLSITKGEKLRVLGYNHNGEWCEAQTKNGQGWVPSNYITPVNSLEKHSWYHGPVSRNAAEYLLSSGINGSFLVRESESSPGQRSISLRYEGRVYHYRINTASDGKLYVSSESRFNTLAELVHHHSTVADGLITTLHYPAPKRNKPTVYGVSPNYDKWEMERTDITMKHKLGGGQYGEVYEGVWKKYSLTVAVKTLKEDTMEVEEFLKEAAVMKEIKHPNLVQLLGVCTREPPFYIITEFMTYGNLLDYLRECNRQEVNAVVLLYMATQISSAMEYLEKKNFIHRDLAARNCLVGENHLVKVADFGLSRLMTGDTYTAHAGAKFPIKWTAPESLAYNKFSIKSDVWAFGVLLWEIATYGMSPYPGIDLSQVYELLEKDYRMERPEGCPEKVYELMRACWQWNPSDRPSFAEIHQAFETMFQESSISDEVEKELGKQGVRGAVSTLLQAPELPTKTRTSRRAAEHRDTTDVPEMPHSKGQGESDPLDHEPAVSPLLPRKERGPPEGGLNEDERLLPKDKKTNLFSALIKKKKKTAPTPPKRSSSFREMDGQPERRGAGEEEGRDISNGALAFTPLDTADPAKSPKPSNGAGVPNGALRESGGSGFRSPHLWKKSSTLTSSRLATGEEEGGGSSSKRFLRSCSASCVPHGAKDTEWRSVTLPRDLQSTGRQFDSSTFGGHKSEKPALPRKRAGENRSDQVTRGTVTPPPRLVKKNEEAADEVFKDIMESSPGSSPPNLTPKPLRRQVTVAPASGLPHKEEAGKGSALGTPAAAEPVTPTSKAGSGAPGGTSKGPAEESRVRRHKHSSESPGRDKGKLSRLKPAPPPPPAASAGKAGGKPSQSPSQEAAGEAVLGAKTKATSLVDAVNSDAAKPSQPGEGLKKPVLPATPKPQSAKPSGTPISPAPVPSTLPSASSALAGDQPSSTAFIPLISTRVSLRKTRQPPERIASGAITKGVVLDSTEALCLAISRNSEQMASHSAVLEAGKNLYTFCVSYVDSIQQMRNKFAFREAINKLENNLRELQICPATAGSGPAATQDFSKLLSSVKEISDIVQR
Description: Thermal Shift Assay. Domain: start/stop: S229-K512
// map ΔTm to label using lower segment: < 0.1 °C; middle segment: ≥ 0.1 °C and < 0.4 °C; upper segment: ≥ 0.4 °C

Any idea which band C=C[C@@]12CCc3cc(O)ccc3[C@H]1CC[C@@]1(C)[C@H]2CC[C@@H]1O is in?
middle segment

Into which category would you place C=CC(=O)Nc1ccc2[nH]c(=O)n(C3CCN(Cc4ccc(-c5ccc6c(c5)NC(=O)CO6)cc4)CC3)c2c1 ?
upper segment

Please classify: C[C@@H](CO)CCC[C@@H](C)[C@H]1CC[C@H]2[C@@H]3CC=C4C[C@@H](O)CC[C@]4(C)[C@H]3CC[C@]12C
middle segment

Categorize the following entry: COc1ccc(-n2nc(C(F)(F)F)cc2-c2ccc(Cl)cc2)cc1
middle segment

Sort COc1nc2ccc([C@@](O)(c3ccc(Cl)cc3)c3cncn3C)cc2c(Cl)c1Cc1ccc(-n2cccn2)cc1 into one of the categories.
lower segment

Which class does O=C1CCC(N2Cc3cc(CNC(=O)C(F)(F)c4ccc(Cl)cc4)ccc3C2=O)C(=O)N1 (stereo not given) fall in?
upper segment

Please classify: C[C@]12CC[C@@H]3c4ccc(C(N)=O)cc4CC[C@H]3[C@@H]1CC=C2c1cncc(F)c1
middle segment

# bin label for CO[C@@H](C)CN1CC[C@]2(C)c3cc(O)ccc3C[C@H]1C2(C)C
upper segment

Which ΔTm category applies to CCOP(=O)(OCC)C(=Cc1cc(C(C)(C)C)c(O)c(C(C)(C)C)c1)P(=O)(OCC)OCC here?
lower segment
